# measurement_target: human IDO1 (Homo sapiens)
# procedure_details: Assessment of human IDO-1 inhibitory activity in HEK cells (human IDO1/HEK293 cells, Ehrlich reagent, absorbance at 490 nm)
# Format: cell-based
# Parameters: expressed in transfected cells
# experimental_parameters: In Vitro Potency in the HEK Human IDO-1 Cellular Assay
measured_metric: IC50

The recorded IC50 for CCC(CC(=O)O)c1cc(F)c(N(CC(C)C)CC(C)C)c(Nc2cnc(OC)nc2)c1 (single isomer, unassigned) is < 5 nM

The recorded IC50 for CCOc1ncc(Nc2cc(C(C)CC(=O)O)ccc2N2CCC[C@H]2C(C)(C)O)cn1 (single isomer, unassigned) is > 50 nM

The recorded IC50 for COCC(CC(=O)O)c1cc(F)c(N(CC(C)C)CC(C)C)c(NC(=O)Nc2ccc(Cl)cc2F)c1 (single isomer, unassigned) is < 5 nM

Continuing:
The recorded IC50 for COCC(CC(=O)O)c1ccc(N(CC(C)C)C2CCCCC2)c(NC(=O)Nc2ccccc2F)c1 (single isomer, unassigned) [1125 E2] is < 5 nM

The recorded IC50 for CCC(CC(=O)O)c1cc(F)c(N(CC(C)C)CC(C)C)c(NC(=O)Nc2ccc(Cl)cc2F)c1 (single isomer, unassigned) is < 5 nM

The recorded IC50 for CCC(CC(=O)O)c1ccc(N(CC2CC2)C(C)C)c(Nc2ccc(Cl)cc2)c1 (single isomer, unassigned) is < 5 nM

The recorded IC50 for CCOc1ccc(NC(=O)Nc2cc(C(CC)CC(=O)O)c(F)cc2N(CC(C)C)C2CCCCC2)cc1 (single isomer, unassigned) is < 5 nM

The recorded IC50 for CC(CC(=O)O)c1ccc(N2C[C@@H](C)O[C@@H](C)C2)c(Nc2ccc(F)cc2)c1 (single isomer, unassigned) is > 50 nM

The recorded IC50 for CCC(CC(=O)O)c1cc(F)c(N(CC(C)C)CC(C)C)c(NC(=O)Nc2ccc(C)c(F)c2)c1 (single isomer, unassigned) is < 5 nM

The recorded IC50 for CCC(CC(=O)O)c1cc(F)c(N(CC(C)C)CC(C)C)c(Nc2ccc(C#N)cc2)c1 (single isomer, unassigned) is < 5 nM

The recorded IC50 for CC(C)CN(c1ccc(C(CC(=O)O)C2CC2)cc1NC(=O)Nc1ccc(Cl)cc1F)C1CCOCC1 (single isomer, unassigned) [Example 1199 Enantiomer 2] is < 5 nM

The recorded IC50 for CCOc1ccc(Nc2cc([C@H](CC)CC(=O)O)ccc2N(CC)C2CCOCC2)cc1 (single isomer, unassigned) is < 5 nM

----------
# measurement_target: human IDO1 (Homo sapiens, UniProt P14902)
# Sequence (P14902 whole entry): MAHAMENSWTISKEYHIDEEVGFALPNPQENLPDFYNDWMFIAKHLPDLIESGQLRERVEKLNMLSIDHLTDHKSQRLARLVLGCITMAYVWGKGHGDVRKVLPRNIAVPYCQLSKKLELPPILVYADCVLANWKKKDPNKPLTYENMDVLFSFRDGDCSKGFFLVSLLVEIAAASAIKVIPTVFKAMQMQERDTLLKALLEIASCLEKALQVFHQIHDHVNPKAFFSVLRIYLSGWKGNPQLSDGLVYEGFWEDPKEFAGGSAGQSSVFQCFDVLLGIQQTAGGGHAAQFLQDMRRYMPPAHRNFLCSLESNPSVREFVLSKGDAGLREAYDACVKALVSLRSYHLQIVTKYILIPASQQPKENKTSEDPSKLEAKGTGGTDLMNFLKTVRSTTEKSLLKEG
# procedure_details: Assessment of human IDO-1 inhibitory activity in Hela cells (Interferon-gamma activated, Ehrlich reagent, absorbance at 490 nm)
# Type: cell-based
# Design: endogenous in cells; host or cells: HeLa cells stimulated with interferon-gamma
# experimental_parameters: 18 hours
Recorded IC50 for the following compounds

The recorded IC50 for CCC1COCCN1c1ccc([C@H](COC)CC(=O)O)cc1Nc1ccc(Cl)cc1 (single isomer, unassigned) is < 50 nM

Continuing:
The recorded IC50 for CCN(c1ccc(C(CC(=O)O)C2CC2)cc1Nc1ccc(OC)nc1)C1CCS(=O)(=O)CC1 (single isomer, unassigned) is < 50 nM

The recorded IC50 for CCC1COCCN1c1ccc([C@H](COC)CC(=O)O)cc1Nc1ccc(C#N)cn1 (single isomer, unassigned) is > 50 nM

Hey, just so you know, these numbers are from patent US10399932B2.
